molecular target: Human TRPA1 expressing CHO cells (Homo sapiens, UniProt O75762); construct: expressed in transfected cells; host or cells: CHO cells (under G-418 selection); assay: 45Calcium uptake assay: inhibition of AITC induced cellular uptake of radioactive calcium; type: cell-based; conditions: 10.0 μM test compound; AITC 30 μM; human TRPA1 CHO cells; read-out: Percentage inhibition at 10.0 μM
Sequence (O75762 whole entry): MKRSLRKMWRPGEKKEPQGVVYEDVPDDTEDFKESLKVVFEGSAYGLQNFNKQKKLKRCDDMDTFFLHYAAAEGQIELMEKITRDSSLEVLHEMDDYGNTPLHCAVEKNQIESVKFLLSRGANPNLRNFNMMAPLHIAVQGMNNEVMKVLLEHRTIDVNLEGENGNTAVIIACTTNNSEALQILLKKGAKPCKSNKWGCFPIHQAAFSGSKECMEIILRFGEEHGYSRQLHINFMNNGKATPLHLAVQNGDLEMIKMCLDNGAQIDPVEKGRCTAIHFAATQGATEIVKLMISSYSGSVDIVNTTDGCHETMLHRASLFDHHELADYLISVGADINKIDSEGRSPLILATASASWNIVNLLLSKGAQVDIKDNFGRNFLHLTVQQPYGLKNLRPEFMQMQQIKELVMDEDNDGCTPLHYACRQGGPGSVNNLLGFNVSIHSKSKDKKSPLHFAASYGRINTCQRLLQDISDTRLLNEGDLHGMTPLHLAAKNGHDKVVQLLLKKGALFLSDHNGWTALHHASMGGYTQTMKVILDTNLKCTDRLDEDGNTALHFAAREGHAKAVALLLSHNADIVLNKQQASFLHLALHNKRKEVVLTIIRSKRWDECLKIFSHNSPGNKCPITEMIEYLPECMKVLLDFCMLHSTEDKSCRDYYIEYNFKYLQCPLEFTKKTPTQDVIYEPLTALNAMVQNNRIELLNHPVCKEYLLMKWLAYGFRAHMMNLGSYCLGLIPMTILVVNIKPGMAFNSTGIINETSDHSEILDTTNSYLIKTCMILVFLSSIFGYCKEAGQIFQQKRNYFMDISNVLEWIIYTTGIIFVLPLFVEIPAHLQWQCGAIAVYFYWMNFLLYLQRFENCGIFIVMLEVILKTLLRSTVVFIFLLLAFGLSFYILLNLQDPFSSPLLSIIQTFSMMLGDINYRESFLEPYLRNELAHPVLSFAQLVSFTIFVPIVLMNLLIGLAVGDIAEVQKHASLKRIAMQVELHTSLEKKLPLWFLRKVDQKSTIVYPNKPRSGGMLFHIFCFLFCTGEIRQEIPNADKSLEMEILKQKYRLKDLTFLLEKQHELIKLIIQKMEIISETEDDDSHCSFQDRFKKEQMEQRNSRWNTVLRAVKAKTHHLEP
READOUT: inhibition at 10 µM

As a guide, the following entries are already answered.
[
  {
    "COMPOUND_SMILES": "Cn1c(=O)c2c(CC(=O)Nc3nc(-c4ccc(OC(F)F)c(Cl)c4)cs3)cccc2n(C)c1=O",
    "inhibition at 10 µM": "99.7%"
  },
  {
    "COMPOUND_SMILES": "CC(C)CCOc1ccc(-c2csc(NC(=O)Cc3cccc4c3c(=O)n(C)c(=O)n4C)n2)cc1",
    "inhibition at 10 µM": "97.9%"
  }
]

inhibition at 10 µM of Cn1c(=O)c2c(CC(=O)Nc3nc(-c4ccc(C(F)(F)F)cc4)cs3)cccc2n(C)c1=O on Human TRPA1 expressing CHO cells (Homo sapiens, UniProt O75762)?
99.1%

inhibition at 10 µM of Cn1c(=O)c2c(CC(=O)Nc3ccn(-c4cccc(C(F)(F)F)c4)n3)cccc2n(C)c1=O on Human TRPA1 expressing CHO cells (Homo sapiens, UniProt O75762)?
99.6%

inhibition at 10 µM of Cn1c(=O)c2c(CC(=O)Nc3ccn(-c4ccc(Cl)cc4)n3)cccc2n(C)c1=O on Human TRPA1 expressing CHO cells (Homo sapiens, UniProt O75762)?
99.7%

----------
biological target: Human TRPA1 expressing CHO cells (Homo sapiens, UniProt O75762); assay: 45Calcium uptake assay: inhibition of AITC induced cellular uptake of radioactive calcium; settings: AITC 30 μM; human TRPA1 CHO cells; read-out: IC50 value (range)
READOUT: IC50

[
  {
    "COMPOUND_SMILES": "Cn1c(=O)c2c(CC(=O)Nc3nc(-c4cc(Cl)ccc4Cl)cs3)cccc2n(C)c1=O",
    "READOUT": "IC50",
    "TEST_VALUE": "> 100 nM"
  },
  {
    "COMPOUND_SMILES": "Cn1c(=O)c2c(CC(=O)Nc3nc(-c4ccc(C5CCCCC5)cc4)cs3)cccc2n(C)c1=O",
    "READOUT": "IC50",
    "TEST_VALUE": "< 50 nM"
  },
  {
    "COMPOUND_SMILES": "Cn1c(=O)c2c(CC(=O)Nc3nc(-c4cccc(Cl)c4)cs3)cccc2n(C)c1=O",
    "READOUT": "IC50",
    "TEST_VALUE": "> 100 nM"
  },
  {
    "COMPOUND_SMILES": "Cn1c(=O)c2c(CC(=O)Nc3nc(-c4cccc(OC(F)(F)F)c4)cs3)cccc2n(C)c1=O",
    "READOUT": "IC50",
    "TEST_VALUE": "< 50 nM"
  },
  {
    "COMPOUND_SMILES": "Cn1c(=O)c2c(CC(=O)Nc3nc(-c4cc(F)c(C(F)(F)F)c(F)c4)cs3)cccc2n(C)c1=O",
    "READOUT": "IC50",
    "TEST_VALUE": "< 50 nM"
  }
]

# get_value(readout='IC50', item= Cn1c(=O)c2c(CC(=O)Nc3nc(-c4ccc(C(F)(F)F)cc4)cs3)cccc2n(C)c1=O )
< 50 nM

# get_value(readout='IC50', item= Cc1cc(-c2csc(NC(=O)Cc3cccc4c3c(=O)n(C)c(=O)n4C)n2)ccc1Cl )
> 100 nM
